# System: Stem
# testDescription: Drug uptake in Solanum lycopersicum (tomato) stem after 60 to 151 days post germination by GC-ECD analysis
# Assay type: ADME
Where a name gives a salt, the structure may show the parent alone.
parameterMeasured: Drug uptake (ng/g)
State the answer as a number, implicitly in ng/g.

Worked set:
>  <compound>
O=S1(=O)OCC2C(CO1)C1(Cl)C(Cl)=C(Cl)C2(Cl)C1(Cl)Cl (centres undefined) [ENDOSULFAN SULFATE]

>  <Drug uptake / ng/g>
82.1

$$$$
>  <compound>
Cl[C@H]1[C@H](Cl)[C@H](Cl)[C@@H](Cl)[C@H](Cl)[C@H]1Cl [ALPHA-HEXACHLOROCYCLOHEXANE]

>  <Drug uptake / ng/g>
1.3

$$$$
>  <compound>
Clc1ccc(C(c2ccc(Cl)cc2)C(Cl)(Cl)Cl)cc1 [CHLOROPHENOTHANE]

>  <Drug uptake / ng/g>
6.8

$$$$

Query string: Returns the measured Drug uptake for the input compound. Input: ClC(Cl)=C(c1ccc(Cl)cc1)c1ccc(Cl)cc1 [DICHLORODIPHENYLDICHLOROETHYLENE]
Result string: 1.8

Query string: Returns the measured Drug uptake for the input compound. Input: O=S1OC[C@@H]2[C@H](CO1)[C@]1(Cl)C(Cl)=C(Cl)[C@]2(Cl)C1(Cl)Cl (stereo partly drawn) [BETA-ENDOSULFAN]
Result string: 1.6

Query string: Returns the measured Drug uptake for the input compound. Input: Cl[C@H]1[C@H](Cl)[C@@H](Cl)[C@H](Cl)[C@@H](Cl)[C@H]1Cl [DELTA-HEXACHLOROCYCLOHEXANE]
Result string: 1.6

Query string: Returns the measured Drug uptake for the input compound. Input: O=S1OC[C@@H]2[C@H](CO1)[C@@]1(Cl)C(Cl)=C(Cl)[C@]2(Cl)C1(Cl)Cl (stereo partly drawn) [ALPHA-ENDOSULFAN]
Result string: 0.9

Query string: Returns the measured Drug uptake for the input compound. Input: Cl[C@H]1[C@H](Cl)[C@@H](Cl)[C@H](Cl)[C@@H](Cl)[C@@H]1Cl [BETA-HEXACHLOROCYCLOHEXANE]
Result string: 2.1

Query string: Returns the measured Drug uptake for the input compound. Input: Cl[C@H]1[C@H](Cl)[C@@H](Cl)[C@@H](Cl)[C@H](Cl)[C@H]1Cl [LINDANE]
Result string: 4.6
